OD450 for assorted binders
# Measurement Target: T1, monkey CD22 protein (ACROBiosystems, catalog number SI2-R52Ha) (monkey, UniProt F6W485 20-688)
# T1 construct: commercial protein; also called monkey CD22-ECD; monkey CD22-ECD-His
# T1 sequence: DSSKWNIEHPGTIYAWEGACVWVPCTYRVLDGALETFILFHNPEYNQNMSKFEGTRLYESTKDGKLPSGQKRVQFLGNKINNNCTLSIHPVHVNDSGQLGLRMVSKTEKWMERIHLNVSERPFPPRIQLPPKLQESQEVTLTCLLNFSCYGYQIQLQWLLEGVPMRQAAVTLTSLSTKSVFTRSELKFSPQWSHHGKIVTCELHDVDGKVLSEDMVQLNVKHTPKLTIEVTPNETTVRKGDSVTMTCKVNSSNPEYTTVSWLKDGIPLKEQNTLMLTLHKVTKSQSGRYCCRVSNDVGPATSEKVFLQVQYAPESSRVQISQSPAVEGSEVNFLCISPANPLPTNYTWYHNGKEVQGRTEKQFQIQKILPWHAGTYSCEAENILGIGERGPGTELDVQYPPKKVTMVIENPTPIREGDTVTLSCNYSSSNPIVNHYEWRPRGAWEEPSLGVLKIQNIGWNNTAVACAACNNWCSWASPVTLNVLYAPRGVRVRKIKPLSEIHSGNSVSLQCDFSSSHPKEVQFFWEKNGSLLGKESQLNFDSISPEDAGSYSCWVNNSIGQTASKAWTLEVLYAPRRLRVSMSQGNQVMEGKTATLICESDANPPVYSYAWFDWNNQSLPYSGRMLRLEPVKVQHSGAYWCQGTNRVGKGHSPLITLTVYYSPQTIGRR
# Assay Summary: ELISA, coated monkey CD22 protein, antibody 0.00001 nM
Endpoint Name: OD450 (OD450)

F2.173.9 (antibody, human IgG1, lambda, V domains shown, human-murine chimeric IgG1 lambda) VH: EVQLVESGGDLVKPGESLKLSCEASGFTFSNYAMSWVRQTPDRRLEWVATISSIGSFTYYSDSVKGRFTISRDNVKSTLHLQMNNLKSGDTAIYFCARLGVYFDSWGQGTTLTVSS VL: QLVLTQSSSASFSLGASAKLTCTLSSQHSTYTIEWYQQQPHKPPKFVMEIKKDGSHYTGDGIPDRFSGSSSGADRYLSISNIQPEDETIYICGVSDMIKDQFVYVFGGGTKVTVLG
0.06
F2.151.13 (antibody, human IgG1, lambda, V domains shown, human-murine chimeric IgG1 lambda) VH: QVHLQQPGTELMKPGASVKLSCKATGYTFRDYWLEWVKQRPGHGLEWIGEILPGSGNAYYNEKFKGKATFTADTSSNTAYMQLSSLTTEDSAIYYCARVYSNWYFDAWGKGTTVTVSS VL: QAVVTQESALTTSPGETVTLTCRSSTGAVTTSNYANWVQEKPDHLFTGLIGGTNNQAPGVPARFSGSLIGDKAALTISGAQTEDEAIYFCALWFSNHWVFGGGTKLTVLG
0.07
F1.280.1 (antibody, human IgG1, kappa, V domains shown, human-murine chimeric IgG1 kappa) VH: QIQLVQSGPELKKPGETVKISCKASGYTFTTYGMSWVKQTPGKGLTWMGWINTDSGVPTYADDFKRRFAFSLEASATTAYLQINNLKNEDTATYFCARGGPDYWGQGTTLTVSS VL: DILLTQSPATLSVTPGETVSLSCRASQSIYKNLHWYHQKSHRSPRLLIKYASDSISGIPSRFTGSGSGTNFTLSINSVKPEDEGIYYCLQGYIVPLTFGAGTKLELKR
0.06
F1.200.11 (antibody, human IgG1, kappa, V domains shown, human-murine chimeric IgG1 kappa) VH: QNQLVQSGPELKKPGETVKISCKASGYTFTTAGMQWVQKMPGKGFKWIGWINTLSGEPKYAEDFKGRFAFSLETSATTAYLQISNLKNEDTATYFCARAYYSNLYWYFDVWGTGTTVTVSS VL: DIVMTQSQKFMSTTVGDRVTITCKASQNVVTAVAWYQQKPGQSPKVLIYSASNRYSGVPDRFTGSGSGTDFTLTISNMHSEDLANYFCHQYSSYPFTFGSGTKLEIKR
0.06

Entry source: patent US20240084003A1
